Ref: patent US20250382354A1

target.entity: MERS FP peptide (MERS), K9N5Q8
Sequence (K9N5Q8 884-903 limits assumed): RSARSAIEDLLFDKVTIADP
assay.text: peptide ELISA
readout.type: EC50 (µg/mL)
# unit: µg/mL | format: bare number

Completed entries (count: 4):
fp.006 (antibody, V domains shown) VH: VQLVESGGGVVQPGGSLRLSCAASGFNFNNYALHWVRQAPGKGLEWVAIISYEARNKKYGVSVMGRFSISRDNSKSIMYLEMNSLRVEDTGVYYCARDLFLSDYDRSGYDPTRGGFDHWGQGTLVTVSS VL: EIVMTQSPATLSVSPGERATLSCRASQSVSSSLAWYQHRFGQAPRLLISGASTRATGIPGRFSGSGSGTEFTLTISSLQSEDVAVYYCQQYGDWPLVTFGGGTKVEIK: 0.0228
fp.003 (antibody, V domains shown) VH: VQLVESGGGVVQPGTSLRLSCTASGFSFSNYAMHWVRQAPGKGLEWVAIISFDTRNKEFADSVKGRFSISRDNSKNSLNLQMNSLRPEDTGVYYCARDLFLSDYDSRGYEPSRGGFDYWGQGTLVTVSS VL: EIVMTQSPATLSVSPGERATLSCRASQSVSSSLAWYQQKLGQPPRLLIYGASTRATGIPARFSGSGSGTEFTLTISSLKSEDSAVYYCQQYNDWPLLSFGGGTKVEIK: 0.0349
fp.005 (antibody, V domains shown) VH: VQLVESGGGVVQPGNSLRLSCAASGFRFNNYAMHWVRQAPGKGLEWVAIISYEARNEKYADSVKGRFSISRDNAKNTLYLQMNSLRADDTGVYYCARDLFLSDYDTSGYDRTRGGFDYWGQGALVTVSS VL: EIVMTQSPATLSVSPGERATLSCRASQSVSNGLAWYQHRFGQPPRLLIYGASTRATGIPTRFSGSGSGTEFTLTISSLQSEDFAVYYCQQYDDWPLITFGGGTKVEIK: 0.04
fp.001 (antibody, V domains shown) VH: VQLVESGGGVVQPGRPLRLSCSGSGFIFSNYAMHWVRQAPGKGLEWVAIISFDARNKRYADSVEGRFTISRDNSKNILYLQMNSLRLEDSAVYFCARDLFLSDYDNGVYDPTRGGFDYWGQGTLVTVSS VL: EIVMTQSPATLSLSPGERATLSCRASQSVNNRLAWYQQKLGQPPRLLISGASTRATGIPARFTGSGSGTEFTLTISSLQSEDFAVYYCQQYHDWPLLSFGGGTKVEIK: 0.0369

Consider the additional binder presented here.
Req: Which measured EC50 value corresponds to fp.004 (antibody, V domains shown) VH: VQLVESGGGVVQPGTSLRLSCVASGFTFSNYAMHWVRQAPGKGLEWVAIISFDTRNTASAASVKGRFNISRDNSKNSLYLQMNSLRPEDTGVYYCARDLFLSDYDSRGYDPITGGFDCWGQGTLVTVSS VL: EIVMTQSPAALSVSPGEGATLSCRASQSVGSRLAWYQQKLGRPPRLLIYGASTRATGIPARFSGSGSGTEFTLTISSLQSEDFAVYYCQQYNDWPLLTFGGGTKVKIK ?
Resp: 0.0386
